Ref: ChEMBL document CHEMBL1143219

assay: Drug level in rat brain at 100 mg/kg, ip after 30 mins; format: ADME, organism-based; design: dose 100 mg/kg, route intraperitoneal; conditions: read-out: Drug uptake
outcomeMeasure: concentration at 0.5 h (nM)
Numbers only, in nM.

Request: For the compound "Cn1c(SCC(=O)N2CCC[C@H]2C(=O)Nc2ccccc2-c2ccccc2)nc2ccccc21" , report concentration at 0.5 h.
Result: 2370

----------
Target chain: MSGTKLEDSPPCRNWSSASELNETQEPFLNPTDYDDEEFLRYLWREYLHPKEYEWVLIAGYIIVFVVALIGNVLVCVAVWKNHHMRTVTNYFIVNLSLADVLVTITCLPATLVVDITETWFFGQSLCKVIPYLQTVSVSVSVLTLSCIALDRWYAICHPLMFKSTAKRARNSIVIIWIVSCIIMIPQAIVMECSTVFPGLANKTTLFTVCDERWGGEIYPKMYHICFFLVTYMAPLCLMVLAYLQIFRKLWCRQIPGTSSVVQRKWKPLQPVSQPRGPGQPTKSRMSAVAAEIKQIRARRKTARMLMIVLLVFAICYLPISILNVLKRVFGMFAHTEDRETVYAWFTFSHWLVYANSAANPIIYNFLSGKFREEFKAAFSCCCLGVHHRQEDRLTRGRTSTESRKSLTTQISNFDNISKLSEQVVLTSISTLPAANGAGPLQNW
pKi: −log10 of the molar value.
Please use 1 whenever pKi is not below 9, and 0 whenever it is.

# count of solved cases: 5
smilesstructure=O=C(Nc1cccc(-c2ccccc2)c1)[C@@H]1CCCN1C(=O)CSc1nc2ccccc2[nH]1 answerlabel=0
smilesstructure=O=C(Nc1ccccc1)[C@@H]1CCCN1C(=O)CSc1nc2ccccc2[nH]1 answerlabel=0
smilesstructure=O=C(Nc1ccccc1-n1cccc1)[C@@H]1CCCN1C(=O)CSc1nc2ccccc2o1 answerlabel=0
smilesstructure=O=C(Nc1ccccc1-c1ccccc1F)[C@@H]1CCCN1C(=O)CCc1nc2ccccc2[nH]1 answerlabel=0
smilesstructure=O=C(Nc1ccccc1-n1cccc1)[C@@H]1CCCN1C(=O)CSc1nc2ccccc2s1 answerlabel=0

Request: Reported pKi at or above 9? "Cn1c(SCC(=O)N2CCC[C@H]2C(=O)Nc2ccccc2-c2ccccc2)nc2ccccc21"
Result: 1

----------
Target: Orexin/Hypocretin receptor type 1 (Homo sapiens)
Sequence (O43613 whole entry): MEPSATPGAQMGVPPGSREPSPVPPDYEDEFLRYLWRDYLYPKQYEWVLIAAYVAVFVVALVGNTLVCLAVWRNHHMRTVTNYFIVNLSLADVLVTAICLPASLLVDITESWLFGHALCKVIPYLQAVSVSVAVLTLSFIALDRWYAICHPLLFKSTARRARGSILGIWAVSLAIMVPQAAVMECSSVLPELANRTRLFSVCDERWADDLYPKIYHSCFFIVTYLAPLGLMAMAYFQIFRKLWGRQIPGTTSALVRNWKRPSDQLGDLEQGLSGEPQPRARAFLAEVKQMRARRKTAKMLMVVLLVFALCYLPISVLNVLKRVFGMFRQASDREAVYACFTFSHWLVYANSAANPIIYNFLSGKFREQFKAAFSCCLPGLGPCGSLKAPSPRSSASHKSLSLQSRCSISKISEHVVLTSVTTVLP
outcomeMeasure: Ki (nM)
One number for each entry, in nM.

See these solved cases before continuing.
smilesstructure=O=C(Nc1ccccc1-c1ccccc1F)[C@@H]1CCCN1C(=O)CCc1nc2ccccc2[nH]1 outcomemeasure=Ki valuemeasured=27
smilesstructure=O=C(Nc1ccccc1-n1cccc1)[C@H]1CCCN1C(=O)CSc1nc2ccccc2[nH]1 outcomemeasure=Ki valuemeasured=2500
smilesstructure=Cc1ccc2nc(SCC(=O)N3CCC[C@H]3C(=O)Nc3ccccc3-n3cccc3)n(C)c2c1 outcomemeasure=Ki valuemeasured=2
smilesstructure=O=C(Nc1ccccc1-n1cccc1)[C@@H]1CCCN1C(=O)CSc1nc2ccccc2s1 outcomemeasure=Ki valuemeasured=39

Shifting focus to the compound that follows.
Request: Give reported Ki value for "O=C(Nc1ccccc1-n1cccc1)[C@@H]1CCCN1C(=O)CCc1nc2ccccc2[nH]1"
Result: 130
